Examples of compounds with documented Alpha 2C IA follow.
- System Tested: alpha2C receptor (Homo sapiens, UniProt P18825)
- Construct: expressed in transfected cells; host or cells: NIH-3T3 cells
- Sequence (P18825 whole entry): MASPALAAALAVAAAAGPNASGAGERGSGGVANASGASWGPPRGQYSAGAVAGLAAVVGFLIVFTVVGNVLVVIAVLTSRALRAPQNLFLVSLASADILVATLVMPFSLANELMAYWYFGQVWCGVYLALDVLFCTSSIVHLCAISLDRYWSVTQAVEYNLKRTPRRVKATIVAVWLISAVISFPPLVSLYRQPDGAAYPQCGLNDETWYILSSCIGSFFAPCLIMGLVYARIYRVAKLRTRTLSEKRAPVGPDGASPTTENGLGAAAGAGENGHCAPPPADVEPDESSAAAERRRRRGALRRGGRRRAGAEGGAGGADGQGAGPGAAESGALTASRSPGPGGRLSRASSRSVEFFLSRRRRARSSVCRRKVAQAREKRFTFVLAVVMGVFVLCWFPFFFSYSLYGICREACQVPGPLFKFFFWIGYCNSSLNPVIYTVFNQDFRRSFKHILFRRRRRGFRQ
- Assay Summary: RSAT (Receptor Selection and Amplification Technology) assay, alpha 2C
- Assay type: cell-based
- Test Parameters: intrinsic activity: ratio of maximal effect of drug to maximal effect of standard full agonist brimonidine (UK14304)
Property Name: Alpha 2C IA

INSERT INTO results (smiles_code, property_name, reported_value) VALUES
  ('O=C(NCCF)NCc1ccc(O)cc1', 'Alpha 2C IA', 0.69),
  ('Cc1ccccc1CNC(=O)NCCF', 'Alpha 2C IA', 0.78),
  ('O=C(NCCF)NCc1cccc(C(F)(F)F)c1Cl', 'Alpha 2C IA', 0.66),
  ('O=C(NCCF)Nc1cccc2ccccc12', 'Alpha 2C IA', 0.66),
  ('O=C(NCCF)NCc1cccc(Br)n1', 'Alpha 2C IA', 0.65),
  ('CCc1ccccc1NC(=O)NCCF', 'Alpha 2C IA', 0.36),
  ('O=C(NCCF)NCc1cccc2c1OCO2', 'Alpha 2C IA', 1.2),
  ('Cc1cccc(CNC(=O)NCCF)c1Cl', 'Alpha 2C IA', 0.66),
  ('Cc1ccccc1NC(=O)NCCF', 'Alpha 2C IA', 0.48),
  ('O=C(NCCF)NCc1cccc(Br)c1Cl', 'Alpha 2C IA', 0.88),
  ('O=C(NCCF)Nc1cccc2c1CCCC2', 'Alpha 2C IA', 0.74),
  ('O=C(NCCF)NCc1cccc(I)c1I', 'Alpha 2C IA', 0.72),
  ('O=C(NCCF)NCc1cccc(Br)c1', 'Alpha 2C IA', 0.81),
  ('O=C(NCCF)NCc1ccccn1', 'Alpha 2C IA', 0.38),
  ('O=C(NCCF)NCc1ccccc1I', 'Alpha 2C IA', 0.78),
  ('O=C(NCCF)NCc1cccc(Cl)c1Cl', 'Alpha 2C IA', 0.86),
  ('Cc1cccc(CNC(=O)NCCF)n1', 'Alpha 2C IA', 0.52),
  ('O=C(NCCF)NCc1cccc(Cl)c1F', 'Alpha 2C IA', 0.71),
  ('O=C(NCCF)Nc1cccc2c1CCC2', 'Alpha 2C IA', 0.63),
  ('COc1c(Cl)cccc1CNC(=O)NCCF', 'Alpha 2C IA', 0.72),
  ('C[C@H](NC(=O)NCCF)c1ccccc1', 'Alpha 2C IA', 0.64),
  ('O=C(NCCF)NCc1ccccc1Br', 'Alpha 2C IA', 1.1),
  ('Cc1cccc(NC(=O)NCCF)c1C', 'Alpha 2C IA', 0.73),
  ('O=C(NCCF)Nc1ccc2ccccc2c1', 'Alpha 2C IA', 0.59),
  ('O=C(NCCF)NCc1cccc2c1OCC2', 'Alpha 2C IA', 0.83),
  ('O=C(NCCF)NCc1cccc(I)c1', 'Alpha 2C IA', 0.62),
  ('COc1c(C)cccc1CNC(=O)NCCF', 'Alpha 2C IA', 0.93),
  ('Cc1c(Cl)cccc1CNC(=O)NCCF', 'Alpha 2C IA', 0.94),
  ('Cc1ccc(CNC(=O)NCCF)o1', 'Alpha 2C IA', 0.56);

---

- System Tested: alpha2C receptor (Homo sapiens, UniProt P18825)
- Assay Summary: RSAT (Receptor Selection and Amplification Technology) assay, alpha 2C
- Test Parameters: RSAT, transfected NIH-3T3 cells; "not active" = not active at concentrations less than 10 micromolar
pEC50: −log10 of the molar value.
Property Name: pEC50

INSERT INTO assay_data (smiles_code, property_name, bound_sign, reported_value) VALUES
  ('Cc1cccc(C)c1NC(=O)NCCF', 'pEC50', '<', 5.70),
  ('O=C(NCCF)NCc1cccc2c1OCO2', 'pEC50', '=', 5.70),
  ('Cc1cccc(CNC(=O)NCCF)c1Cl', 'pEC50', '=', 7.00),
  ('Cc1ccc(CNC(=O)NCCF)o1', 'pEC50', '=', 5.58),
  ('CCc1ccccc1NC(=O)NCCF', 'pEC50', '<', 5.70),
  ('O=C(NCCF)NCc1cccc2c1OCC2', 'pEC50', '=', 7.09),
  ('Cc1ccccc1NC(=O)NCCF', 'pEC50', '<', 5.70),
  ('O=C(NCCF)NCc1cccc(Cl)c1F', 'pEC50', '=', 5.95),
  ('O=C(NCCF)NCc1ccccc1C(F)(F)F', 'pEC50', '=', 6.02),
  ('Cc1ccnc(CNC(=O)NCCF)c1', 'pEC50', '=', 5.81),
  ('O=C(NCCF)NCc1cccc(C(F)(F)F)c1Cl', 'pEC50', '=', 5.96),
  ('Cc1cccc(NC(=O)NCCF)c1C', 'pEC50', '=', 6.13),
  ('O=C(NCCF)NCc1cccc(Cl)c1Cl', 'pEC50', '=', 6.35),
  ('COc1c(Cl)cccc1CNC(=O)NCCF', 'pEC50', '=', 6.14),
  ('O=C(NCCF)NCc1ccccc1I', 'pEC50', '=', 6.31),
  ('O=C(NCCF)NCc1ccccc1Br', 'pEC50', '=', 6.31),
  ('O=C(NCCF)NCc1cccc(F)c1', 'pEC50', '=', 6.43);
